Reference source: ChEMBL document CHEMBL5257020

# test protocol: Ratio of drug concentration in rat blood to plasma measured after 60 mins by LC-MS/MS analysis
# Type: ADME, cell-free
Where a SMILES comes first, the peptide text is derived from it. [ ]: non-standard residue; d: D form. ξ: configuration not given here. ξDip = NC(C(=O)O)C(c1ccccc1)c1ccccc1
readout label: blood plasma ratio at 1 h
Numbers only.

q: Please look up its blood plasma ratio at 1 h: NCCCC[C@H](NC(=O)C(NC(=O)[C@H](Cc1c[nH]c2ccccc12)NC(=O)[C@H](CCCCN)NC(=O)[C@H](CCCCN)NC(=O)[C@H](Cc1c[nH]c2ccccc12)NC(=O)[C@H](Cc1c[nH]c2ccccc12)NC(=O)[C@H](CCCCN)NC(=O)[C@@H](N)CCCCN)C(c1ccccc1)c1ccccc1)C(N)=O (stereo partly specified) (H-KKWWKKW[ξDip]K-NH2)
a: 1.03

* * *

# test protocol: Stability in pooled and cryopreserved human hepatocytes assessed as half life at 1 uM measured for 90 mins by LC-MS/MS analysis
# Assay type: ADME, cell-based, Hepatocyte
Where a SMILES comes first, the peptide text is derived from it. [ ]: non-standard residue; d: D form. ξ: configuration not given here. ξDip = NC(C(=O)O)C(c1ccccc1)c1ccccc1
readout label: half-life at 1 µM

For each of the compounds below, note its half-life at 1 µM.
1. Cc1cc(=O)oc2cc(O)ccc12
2. NCCCC[C@H](NC(=O)C(NC(=O)[C@H](Cc1c[nH]c2ccccc12)NC(=O)[C@H](CCCCN)NC(=O)[C@H](CCCCN)NC(=O)[C@H](Cc1c[nH]c2ccccc12)NC(=O)[C@H](Cc1c[nH]c2ccccc12)NC(=O)[C@H](CCCCN)NC(=O)[C@@H](N)CCCCN)C(c1ccccc1)c1ccccc1)C(N)=O (stereo partly drawn) (H-KKWWKKW[ξDip]K-NH2)
3. Cc1ncc2n1-c1ccc(Cl)cc1C(c1ccccc1F)=NC2

a:
1: 11 min; 2: 64 min; 3: > 200 min

* * *

For each record, write down the corresponding pIC50.
# System: A20
# test protocol: Cytotoxicity against mouse A20 lymphoma cells assessed as inhibition of cell proliferation incubated for 4 hrs by MTT assay
# Type: functional, cell-based
# test parameters: A20, 4 h
Where a SMILES comes first, the peptide text is derived from it. [ ]: non-standard residue; d: D form. ξ: configuration not given here. ξDip = NC(C(=O)O)C(c1ccccc1)c1ccccc1; ξDab = NCCC(N)C(=O)O
One number for each entry, as −log10 of the molar value.

[[record]]
compound = "NCCCC[C@H](NC(=O)[C@H](Cc1c[nH]c2ccccc12)NC(=O)[C@H](CCCCN)NC(=O)[C@H](CCCCN)NC(=O)C(NC(=O)[C@H](Cc1c[nH]c2ccccc12)NC(=O)[C@H](CCCCN)NC(=O)[C@H](CCCCN)NC(=O)[C@@H](N)Cc1c[nH]c2ccccc12)C(c1ccccc1)c1ccccc1)C(N)=O (stereo partly drawn) (H-WKKW[ξDip]KKWK-NH2)"
readout_label = "pIC50"
reading = 4.80

[[record]]
compound = "NCCC(N)C(=O)NC(CCN)C(=O)N[C@@H](Cc1c[nH]c2ccccc12)C(=O)NC(C(=O)NC(CCN)C(=O)NC(CCN)C(=O)N[C@@H](Cc1c[nH]c2ccccc12)C(=O)N[C@@H](Cc1c[nH]c2ccccc12)C(=O)NC(CCN)C(N)=O)C(c1ccccc1)c1ccccc1 (stereo partly drawn) (H-[ξDab][ξDab]W[ξDip][ξDab][ξDab]WW[ξDab]-NH2)"
readout_label = "pIC50"
reading = 5.08


Okay, next one:
q: Please look up its pIC50: NCCCC[C@H](NC(=O)[C@H](Cc1c[nH]c2ccccc12)NC(=O)[C@H](Cc1c[nH]c2ccccc12)NC(=O)[C@H](CCCCN)NC(=O)[C@H](CCCCN)NC(=O)C(NC(=O)[C@H](Cc1c[nH]c2ccccc12)NC(=O)[C@H](CCCCN)NC(=O)[C@@H](N)CCCCN)C(c1ccccc1)c1ccccc1)C(N)=O (stereo partly drawn) (H-KKW[ξDip]KKWWK-NH2)
a: 4.59
